# study target: MetJ dimer–DNA complex (F-metC) (Escherichia coli)
# Sequence (P0A8U6 2-105, one chain of several): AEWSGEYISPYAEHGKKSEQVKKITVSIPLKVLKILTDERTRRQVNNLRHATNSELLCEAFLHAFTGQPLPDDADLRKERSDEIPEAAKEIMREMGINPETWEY
# test details: Fluorescence anisotropy assay: MetJ titrated into F-metC DNA and ligand, MetJ dimer–DNA complex formation
# Format: binding
# test parameters: unquaternised bivalent ligand 1 mM vs 11 at 2 mM
value kind: Fold-improvement over monovalent control 11

Record CN(CC[C@H](N)C(=O)NCc1cccc(CNC(=O)[C@@H](N)CCN(C)C[C@H]2O[C@@H](n3cnc4c(N)ncnc43)[C@H](O)[C@@H]2O)c1)C[C@H]1O[C@@H](n2cnc3c(N)ncnc32)[C@H](O)[C@@H]1O . Reported Fold-improvement over monovalent control 11: 3.2-fold

Record CN(CC[C@H](N)C(=O)NCc1ccccc1-c1ccccc1CNC(=O)[C@@H](N)CCN(C)C[C@H]1O[C@@H](n2cnc3c(N)ncnc32)[C@H](O)[C@@H]1O)C[C@H]1O[C@@H](n2cnc3c(N)ncnc32)[C@H](O)[C@@H]1O . Reported Fold-improvement over monovalent control 11: 3.1-fold
